Target: Recombinant human NK3 (hNK3) receptor (Homo sapiens)
Construct: expressed in transfected cells
Sequence (P29371 1-465): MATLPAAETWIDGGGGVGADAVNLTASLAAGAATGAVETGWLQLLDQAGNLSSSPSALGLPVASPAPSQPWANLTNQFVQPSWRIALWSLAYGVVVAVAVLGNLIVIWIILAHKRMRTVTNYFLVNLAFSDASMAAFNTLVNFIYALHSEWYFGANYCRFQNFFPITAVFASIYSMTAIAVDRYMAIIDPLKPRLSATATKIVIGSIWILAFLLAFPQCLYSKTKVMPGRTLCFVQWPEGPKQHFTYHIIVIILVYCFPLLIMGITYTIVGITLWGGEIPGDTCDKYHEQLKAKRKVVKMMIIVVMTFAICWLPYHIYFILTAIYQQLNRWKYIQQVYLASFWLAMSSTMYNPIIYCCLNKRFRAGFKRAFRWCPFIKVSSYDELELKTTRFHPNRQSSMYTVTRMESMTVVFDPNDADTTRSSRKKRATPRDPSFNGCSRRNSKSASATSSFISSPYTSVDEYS
Assay: NK3 receptor binding, [3H]SR142801 displacement, membrane preparations
Conditions: second value of the cell pKi NK1/NK3; hNK3 receptor, [3H]SR142801
Entries and their measured Ki follow.

# molecule, Ki (nM)
records = [
    ("CC(=O)N1CCN(c2cc(-c3ccccc3Cl)c(N(C)C(=O)C(C)(C)c3cc(C(F)(F)F)cc(C(F)(F)F)c3)cn2)CC1 [Example 61]", 14.1),
    ("Cc1ccccc1-c1cc(N2CC[C@H](O)[C@@H](CO)C2)ncc1N(C)C(=O)C(C)(C)c1cc(C(F)(F)F)cc(C(F)(F)F)c1 (racemic) [Example 191]", 24.5),
    ("CCN(C(C)=O)C1CCN(c2cc(-c3ccccc3Cl)c(N(C)C(=O)C(C)(C)c3cc(C(F)(F)F)cc(C(F)(F)F)c3)cn2)C1 (racemic) [Example 45]", 2),
    ("CN(C(=O)C(C)(C)c1cc(C(F)(F)F)cc(C(F)(F)F)c1)c1cnc(N2CCC[C@@H](O)[C@H]2CO)cc1-c1ccccc1Cl (racemic) [Example 195]", 28.8),
    ("CC(=O)N1CCCN(c2cc(-c3ccccc3Cl)c(N(C)C(=O)C(C)(C)c3cc(C(F)(F)F)cc(C(F)(F)F)c3)cn2)CC1 [Example 63]", 1.17),
    ("CN(C(=O)C(C)(C)c1cc(C(F)(F)F)cc(C(F)(F)F)c1)c1cnc(N2CC[C@H](N(C)C)C2)cc1-c1ccccc1Cl [Example 65]", 2.75),
    ("Cc1ccccc1-c1cc(NC[C@H](O)CO)ncc1N(C)C(=O)C(C)(C)c1cc(C(F)(F)F)cc(C(F)(F)F)c1 [Example 122]", 19.5),
    ("CC(=O)NCCNc1cc(-c2ccccc2Cl)c(N(C)C(=O)C(C)(C)c2cc(C(F)(F)F)cc(C(F)(F)F)c2)cn1 [Example 90]", 6.03),
    ("Cc1ccccc1-c1cc(N2CCOC[C@H]2CO)ncc1N(C)C(=O)C(C)(C)c1cc(C(F)(F)F)cc(C(F)(F)F)c1 [Example 175]", 2.14),
    ("Cc1ccc(F)cc1-c1cc(N(CCO)CCO)ncc1N(C)C(=O)C(C)(C)c1cc(C(F)(F)F)cc(C(F)(F)F)c1 [Example 128]", 5.62),
    ("Cc1cc(C)cc(C(C)(C)C(=O)N(C)c2cnc(N3CCC[C@H]3CO)cc2-c2ccccc2Cl)c1 [Example 9]", 3.63),
    ("CC(=O)N[C@H]1CCN(c2cc(-c3ccccc3Br)c(N(C)C(=O)C(C)(C)c3cc(C(F)(F)F)cc(C(F)(F)F)c3)cn2)C1 [Example 133]", 2),
    ("Cc1ccccc1-c1cc(N2CC[C@@H](O)[C@H](O)C2)ncc1N(C)C(=O)C(C)(C)c1cc(C(F)(F)F)cc(C(F)(F)F)c1 (racemic) [Example 186]", 12.3),
    ("Cc1ccccc1-c1cc(N2C[C@H](O)C[C@H]2CO)ncc1N(C)C(=O)C(C)(C)c1cc(F)cc(F)c1 [Example 16]", 4.07),
    ("C[C@H](O)[C@H](CO)Nc1cc(-c2ccccc2Cl)c(N(C)C(=O)C(C)(C)c2cc(C(F)(F)F)cc(C(F)(F)F)c2)cn1 [Example 147]", 10.5),
    ("Cc1cc(C)cc(C(C)(C)C(=O)N(C)c2cnc(N3C[C@H](O)C[C@H]3CO)cc2-c2ccc(F)cc2C)c1 [Example 33]", 3.02),
]
